- target entity: human ether-à-go-go-related gene (hERG) potassium channel (human, UniProt Q12809);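 note: peak tail current of the secondary pulse compared with the same well before compound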
- Sequence (Q12809 whole entry, looked up): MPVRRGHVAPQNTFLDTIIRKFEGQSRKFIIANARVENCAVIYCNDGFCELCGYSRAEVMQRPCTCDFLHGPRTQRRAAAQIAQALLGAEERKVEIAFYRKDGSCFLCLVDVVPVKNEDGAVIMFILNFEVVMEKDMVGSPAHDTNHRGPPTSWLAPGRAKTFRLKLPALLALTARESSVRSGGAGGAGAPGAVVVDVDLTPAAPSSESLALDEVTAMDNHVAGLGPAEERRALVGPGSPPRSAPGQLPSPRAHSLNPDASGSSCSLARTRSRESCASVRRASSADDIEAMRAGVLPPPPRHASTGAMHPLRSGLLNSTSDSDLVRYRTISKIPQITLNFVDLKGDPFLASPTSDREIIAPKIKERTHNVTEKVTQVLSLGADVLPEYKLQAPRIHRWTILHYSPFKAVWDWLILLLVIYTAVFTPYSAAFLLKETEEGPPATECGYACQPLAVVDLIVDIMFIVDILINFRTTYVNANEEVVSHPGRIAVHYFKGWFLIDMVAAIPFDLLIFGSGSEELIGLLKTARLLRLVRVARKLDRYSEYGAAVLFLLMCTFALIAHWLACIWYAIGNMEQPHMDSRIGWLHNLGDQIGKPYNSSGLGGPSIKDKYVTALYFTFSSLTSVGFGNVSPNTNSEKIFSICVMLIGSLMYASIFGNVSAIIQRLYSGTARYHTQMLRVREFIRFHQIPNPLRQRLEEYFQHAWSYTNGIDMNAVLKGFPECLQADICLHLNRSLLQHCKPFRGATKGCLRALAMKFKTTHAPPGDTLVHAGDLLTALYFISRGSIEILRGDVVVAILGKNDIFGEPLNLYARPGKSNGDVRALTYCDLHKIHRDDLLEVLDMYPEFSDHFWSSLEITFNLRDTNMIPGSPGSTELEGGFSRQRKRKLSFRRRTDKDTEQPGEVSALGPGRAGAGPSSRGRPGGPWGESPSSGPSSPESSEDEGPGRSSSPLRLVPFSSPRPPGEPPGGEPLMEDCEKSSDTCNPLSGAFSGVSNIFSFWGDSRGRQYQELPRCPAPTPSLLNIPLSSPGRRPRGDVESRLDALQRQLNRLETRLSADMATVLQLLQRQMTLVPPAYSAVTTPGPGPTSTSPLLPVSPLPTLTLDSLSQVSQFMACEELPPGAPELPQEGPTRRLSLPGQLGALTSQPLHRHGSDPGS
- assay info: primary screen, population patch clamp on CHO cells stably expressing hERG; higher = less effect of the substance
About 14,000 (4.5%) of roughly 310,000 compounds showed an effect of 50% or more. Effects have a minus sign here. This is one part of a sample in which strong results are shown more often than they occur.
readout label: hERG current change (%, negative = inhibition) at 10uM (%)
# unit: % | format: bare number

Some compounds with known hERG current change (%, negative = inhibition) at 10uM results, for comparison:
CCCCn1nnnc1SCC(=O)N(CC)CC :: 10.4
COc1ccc(C)cc1NC(=O)COCC(=O)O :: -8.48
COc1ccc(-c2nc(CSCC(=O)N3CCC(C(N)=O)CC3)c(C)o2)cc1OC :: -0.184
CCC1CCCCN1CCCNC(=O)CS(=O)Cc1nc(-c2ccc(OC)c(OC)c2)oc1C (centres unmarked) :: 5.21
[Br-].c1ccc(-c2cn(-c3ccccc3)c3[n+]2CCCS3)cc1 :: -3.51
CCn1c(SCC(=O)Nc2ncc(C(F)(F)F)cc2Cl)nnc1-c1cccc(C)c1 :: -69.9

Value of measured hERG current change (%, negative = inhibition) at 10uM for the entry Cn1c(SCC(=O)Nc2ncc(C(F)(F)F)cc2Cl)nnc1-c1ccc(Cl)cc1 : -30.8

Measured hERG current change (%, negative = inhibition) at 10uM of CCn1c(SCC(=O)NC2CC2)nnc1-c1ccc(OC)cc1 : 17.4

Lab book: hERG current change (%, negative = inhibition) at 10uM of CCCn1c(O)c(N=NC(=O)c2cccnc2)c2cc(Br)ccc21 noted as -3.7

// sample N#Cc1ccc(-c2cn(-c3ccccc3)c3[n+]2CCCS3)cc1.[Br-] , its hERG current change (%, negative = inhibition) at 10uM was 16.3

// recorded hERG current change (%, negative = inhibition) at 10uM for COc1cc(-c2nc(CN3CCN(CC(C)C)C(=O)[C@@H]3C)c(C)o2)ccc1F : -14.2

Data point: CCOC(=O)CC1CCCCN1Cc1cn[nH]c1-c1ccc(F)cc1F (centres unmarked) ; hERG current change (%, negative = inhibition) at 10uM = -64.8

What the record says about CCn1c(O)c(N=NC(=O)c2cccnc2)c2cc(Br)ccc21 : hERG current change (%, negative = inhibition) at 10uM is -2.17

Notebook: CCn1c(SCC(=O)Nc2ncc(C(F)(F)F)cc2Cl)nnc1-c1ccccc1 , hERG current change (%, negative = inhibition) at 10uM read as -12.6

# hERG current change (%, negative = inhibition) at 10uM of CCOC(=O)C1CCCN(Cc2cn[nH]c2-c2ccc(F)cc2F)C1 (centres unmarked) = -2.03

Record COc1cccc(-n2c(SCC(N)=O)nnc2-c2ccco2)c1 . Reported hERG current change (%, negative = inhibition) at 10uM: 13.7

Kindly note the recorded hERG current change (%, negative = inhibition) at 10uM for COC(=O)c1cc(O)cc(OC)c1C(=O)c1c(O)cc(C)cc1O , which is 4.87

----------
- target entity: human ether-à-go-go-related gene (hERG) potassium channel (human, UniProt Q12809);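 note: peak tail current of the secondary pulse compared with the same well before compound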
- assay info: primary screen, population patch clamp on CHO cells stably expressing hERG; higher = less effect of the substance
- Procedure: Briefly, Chinese hamster ovary (CHO) cells stably expressing the hERG channel were dislodged from tissue culture flasks and dispensed into PPC plates. […] During the recording, background leak currents were estimated by a 100 ms step to -80 mV from an initial holding potential of -70 mV and subtracted from the subsequent current measurement. The campaign was conducted in two phases using slight differences in recording protocol. […]
Among all 310,000 compounds or so, about 14,000 (4.5%) showed an effect of 50% or more. Effects have a minus sign here. Many of the other results were omitted from the sample, so strong results are more common in it than they were.
readout label: hERG current change (%, negative = inhibition) at 10uM (%)
Give just the number in %; leave the unit off.

Reference set (4 entries):
Cl.Clc1ccccc1C(c1nnnn1Cc1ccco1)N1CCN(Cc2ccco2)CC1 (stereo not shown) :: -27.6
O=C(c1cccc(Br)c1)N1CCN(c2cnn(-c3ccccc3)c(=O)c2Cl)CC1 :: -47.4
CCOc1ccc(C(=O)N2CCN(c3cnn(-c4ccccc4)c(=O)c3Cl)CC2)cc1 :: -77.8
O=C1N=C(N2CCN(c3cccc4ccccc34)CC2)S/C1=C/c1cccs1 :: 11.9

hERG current change (%, negative = inhibition) at 10uM for O=c1c2c(-c3ccc([N+](=O)[O-])cc3)csc2nc2n1CCC2 is -77.6

The value of hERG current change (%, negative = inhibition) at 10uM measured for the molecule CC1=C(C(=O)OCC(Br)(Br)Br)C(c2cccc([N+](=O)[O-])c2)NC(=O)N1CCCC(=O)O (stereo not shown) turned out to be -3.03

Looking up O=C(C#Cc1ccccc1)Nc1ccc(F)cc1 , I found its hERG current change (%, negative = inhibition) at 10uM recorded as 10.1

// recorded hERG current change (%, negative = inhibition) at 10uM for Cc1cc(C)c(NC(=O)c2cn3c4c(c(N5CCN(C)CC5)c(F)cc4c2=O)OCC3C)c(C)c1 (stereo not shown) : -51.7

So for Cc1cccc(S(=O)(=O)c2c(N)n(/N=C/c3cccnc3)c3nc4ccccc4nc23)c1 , the logged hERG current change (%, negative = inhibition) at 10uM turned out to be -4.67

----------
Below: a set of entries, each annotated with reported hERG current change (%, negative = inhibition) at 10uM.
- target entity: human ether-à-go-go-related gene (hERG) potassium channel (human, UniProt Q12809);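 note: peak tail current of the secondary pulse compared with the same well before compound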
- assay info: primary screen, population patch clamp on CHO cells stably expressing hERG; higher = less effect of the substance
In all, about 310,000 compounds went through this assay and about 14,000 (4.5%) showed an effect of 50% or more. Effects have a minus sign here. What follows is part of a selection rich in strong results, with near analogues and random picks from the rest.
Please report the result as a number followed by the unit.

Lab note: O=C(O)c1ccc(N=Cc2c(O)[nH]c(=O)[nH]c2=O)cc1 gave hERG current change (%, negative = inhibition) at 10uM of 8.59%

The value of hERG current change (%, negative = inhibition) at 10uM measured for the molecule CC1CN(C(=O)c2ccc(-c3cccc(C(F)(F)F)c3)o2)CC(C)O1 (stereo not shown) turned out to be -43.7%

Consider CO/N=C/c1ccc(N2CCOCC2)c([N+](=O)[O-])c1 . Its measured hERG current change (%, negative = inhibition) at 10uM is 0.313%

So, O=C(NCc1ccco1)c1sc2ccccc2c1Cl ? Its hERG current change (%, negative = inhibition) at 10uM was -9.84%

What the record says about CC1CC(C(F)(F)F)n2ncc(C(=O)O)c2N1 (stereo not shown) : hERG current change (%, negative = inhibition) at 10uM is 11.5%

hERG current change (%, negative = inhibition) at 10uM in this record for CC(C)(C)N1CC(C(=O)Nc2ccc(C#N)cc2)CC1=O (stereo not shown) : 11.6%

----------
- target entity: human ether-à-go-go-related gene (hERG) potassium channel (human);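 note: peak tail current of the secondary pulse compared with the same well before compound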
- assay info: primary screen, population patch clamp on CHO cells stably expressing hERG; higher = less effect of the substance
Hit rate of the full screen: of about 310,000 compounds, about 14,000 (4.5%) showed an effect of 50% or more. The effect is printed as a negative number. The sample as a whole holds a higher share of strong results than the screen did.
This section presents molecules with their documented hERG current change (%, negative = inhibition) at 10uM values.
Just the number please, in %, no unit attached.

O=C(c1cc(F)ccc1F)C1CCCN(CCCc2ccccc2)C1 (centres unmarked) :: -73.2
O=C(N/N=C/c1ccc([N+](=O)[O-])cc1)c1c[nH]c2ccccc12 :: 19.1
COc1cccc(O)c1CN1CCCC(C(=O)c2cccc(C(F)(F)F)c2)C1 (centres unmarked) :: -57.5
Cc1cc2ccccn2c1C(=O)c1ccc(NN)c([N+](=O)[O-])c1 :: -6.4
O=C(c1ccco1)N1CCN(Cc2cc(=O)c(OCc3c(F)cccc3Cl)co2)CC1 :: -58
O=C(C1CCCN(CCCc2ccccc2)C1)N1CCCCC1 (centres unmarked) :: -38.8
O=C(CN1C(=O)NC2(CCOc3ccccc32)C1=O)c1ccc(Cl)cc1 (centres unmarked) :: -43.5
COc1ccc(C(=O)CN2C(=O)c3ccccc3C2=O)cc1 :: 7.16

The measured hERG current change (%, negative = inhibition) at 10uM associated with O=C(c1ccco1)N1CCN(Cc2c(F)cccc2Cl)CC1 reads -9.87

Noted for O=C(c1cccc(C(F)(F)F)c1)C1CCCN(Cc2ccc(OCCO)cc2)C1 (centres unmarked) : its hERG current change (%, negative = inhibition) at 10uM reads -69.8

hERG current change (%, negative = inhibition) at 10uM reading for O=c1cc(CO)occ1OCc1c(F)cccc1Cl : 9.21

The molecule COc1cc(OC)cc(-c2sc3ccc(OC)cc3c2C#CCCO)c1 showed hERG current change (%, negative = inhibition) at 10uM equal to 10.5

Entry CC(OC(=O)CCCNC(=O)c1ccc(Cl)cc1)C(=O)N(C)Cc1ccccc1 (centres unmarked) — recorded hERG current change (%, negative = inhibition) at 10uM = -54.2

Form field hERG current change (%, negative = inhibition) at 10uM, entry Cc1cccc(C(=O)N[C@@H](C)C(=O)N2CCN(c3ncccn3)CC2)c1 : -3.21
